Measured CC50 by item
System: HOP-92
Test: cells
Settings: Homo sapiens, HOP-92, 48 h, read-out: LC50

Compound	Assay system	Value units	Operator	CC50
COc1cc(/C=C/C(=O)c2ccc(C)cc2)ccc1Oc1nc(NCCO)nc(N2CCOCC2)n1 [20b]	HOP-92	µM	>	100
CN(C)c1nc(NCCNS(=O)(=O)c2ccc(C(=O)/C=C/c3ccc(Cl)cc3)cc2)nc(Nc2ccc(F)cc2)n1 [24e]	HOP-92	µM	=	14.7
COc1cc(/C=C/C(=O)c2ccc(S(=O)(=O)NCCNc3nc(Nc4ccc(F)cc4)nc(N(C)C)n3)cc2)cc(OC)c1OC [24d]	HOP-92	µM	>	100
Cc1ccc(C2CC(c3ccc(S(=O)(=O)NCCNc4nc(Nc5ccc(F)cc5)nc(N(C)C)n4)cc3)=Nc3c(N)nc(N)nc3N2)cc1 (stereo not shown) [31b]	HOP-92	µM	=	21
COc1cc(/C=C/C(=O)c2ccccc2)ccc1Oc1nc(Nc2ccc(F)cc2)nc(N(C)C)n1 [21a]	HOP-92	µM	>	100
Nc1nc(N)c2c(n1)NC(c1ccc(C(F)(F)F)cc1)CC(c1ccc(Nc3nc(NCCO)nc(Nc4ccc(Cl)cc4)n3)cc1)=N2 (stereo not shown) [33g]	HOP-92	µM	=	7.94
COc1cc(/C=C/C(=O)c2ccc(S(=O)(=O)NCCNc3nc(N(C)C)nc(N4CCOCC4)n3)cc2)cc(OC)c1OC [23d]	HOP-92	µM	=	76

* * *

Test system: TK-10
Test: cells
Conditions: Homo sapiens, TK-10, 48 h

Molecule	Value units	Operator	GI50
COc1cc(/C=C/C(=O)c2ccc(C)cc2)ccc1Oc1nc(Nc2ccc(F)cc2)nc(N(C)C)n1 [21b]	µM	=	18.2
CN(C)c1nc(NCCNS(=O)(=O)c2ccc(C(=O)/C=C/c3ccc(Cl)cc3)cc2)nc(Nc2ccc(F)cc2)n1 [24e]	µM	=	11.7
COc1cc(/C=C/C(=O)c2ccc(C)cc2)ccc1Oc1nc(NCCO)nc(N2CCOCC2)n1 [20b]	µM	>	100
Cc1ccc(C2CC(c3ccc(S(=O)(=O)NCCNc4nc(Nc5ccc(F)cc5)nc(N(C)C)n4)cc3)=Nc3c(N)nc(N)nc3N2)cc1 (stereo not drawn) [31b]	µM	>	100
Nc1nc(N)c2c(n1)NC(c1ccc(F)cc1)CC(c1ccc(Nc3nc(NCCO)nc(Nc4ccc(Cl)cc4)n3)cc1)=N2 (stereo not drawn) [33f]	µM	=	4.61
COc1cc(/C=C/C(=O)c2ccc(S(=O)(=O)NCCNc3nc(N(C)C)nc(N4CCOCC4)n3)cc2)cc(OC)c1OC [23d]	µM	=	13.1
COc1cc(/C=C/C(=O)c2cc(OC)c(OC)c(OC)c2)ccc1Oc1nc(Nc2ccc(F)cc2)nc(N(C)C)n1 [21d]	µM	=	2.53
COc1cc(/C=C/C(=O)c2cc(OC)c(OC)c(OC)c2)ccc1Oc1nc(NCCO)nc(N2CCOCC2)n1 [20d]	µM	=	3.12
CN(C)c1nc(NCCNS(=O)(=O)c2ccc(C(=O)/C=C/c3ccc(C(F)(F)F)cc3)cc2)nc(Nc2ccc(F)cc2)n1 [24g]	µM	=	17.4
Nc1nc(N)c2c(n1)NC(c1ccc(C(F)(F)F)cc1)CC(c1ccc(Nc3nc(NCCO)nc(Nc4ccc(Cl)cc4)n3)cc1)=N2 (stereo not drawn) [33g]	µM	=	1.78
CN(C)c1nc(NCCNS(=O)(=O)c2ccc(C3=Nc4c(N)nc(N)nc4NC(c4ccccc4)C3)cc2)nc(Nc2ccc(F)cc2)n1 (stereo not drawn) [31a]	µM	>	100
COc1cc(/C=C/C(=O)c2ccccc2)ccc1Oc1nc(Nc2ccc(F)cc2)nc(N(C)C)n1 [21a]	µM	=	18
CN(C)c1nc(NCCNS(=O)(=O)c2ccc(C(=O)/C=C/c3ccc(Cl)cc3)cc2)nc(N2CCOCC2)n1 [23e]	µM	=	15.8
CN(C)c1nc(NCCNS(=O)(=O)c2ccc(C(=O)/C=C/c3ccc(F)cc3)cc2)nc(N2CCOCC2)n1 [23f]	µM	=	15.3
CN(C)c1nc(NCCNS(=O)(=O)c2ccc(C3=Nc4c(N)nc(N)nc4NC(c4ccc(C(F)(F)F)cc4)C3)cc2)nc(N2CCOCC2)n1 (stereo not drawn) [30g]	µM	=	54.3

* * *

System: A498
Assay: cells
Details: Homo sapiens, A498, 48 h, read-out: LC50

Molecule	Assay system	Operator	CC50 (µM)
CN(C)c1nc(NCCNS(=O)(=O)c2ccc(C(=O)/C=C/c3ccccc3)cc2)nc(Nc2ccc(F)cc2)n1 [24a]	A498	=	49.7
COc1cc(/C=C/C(=O)c2ccc(C)cc2)ccc1Oc1nc(Nc2ccc(F)cc2)nc(N(C)C)n1 [21b]	A498	>	100
CN(C)c1nc(NCCNS(=O)(=O)c2ccc(C3=Nc4c(N)nc(N)nc4NC(c4ccc(C(F)(F)F)cc4)C3)cc2)nc(Nc2ccc(F)cc2)n1 (stereo not shown) [31g]	A498	=	77.4
CN(C)c1nc(NCCNS(=O)(=O)c2ccc(C(=O)/C=C/c3ccc(C(F)(F)F)cc3)cc2)nc(N2CCOCC2)n1 [23g]	A498	=	53
COc1ccc(/C=C/C(=O)c2ccc(S(=O)(=O)NCCNc3nc(Nc4ccc(F)cc4)nc(N(C)C)n3)cc2)cc1 [24c]	A498	=	87.8
COc1cc(/C=C/C(=O)c2cc(OC)c(OC)c(OC)c2)ccc1Oc1nc(NCCO)nc(N2CCOCC2)n1 [20d]	A498	=	37
Cc1ccc(C2CC(c3ccc(Nc4nc(NCCO)nc(Nc5ccc(Cl)cc5)n4)cc3)=Nc3c(N)nc(N)nc3N2)cc1 (stereo not shown) [33b]	A498	=	42

* * *

Let's go through some GI50 measurements on ACHN together.

Molecule	Operator	GI50, µM
COc1cc(/C=C/C(=O)c2cc(OC)c(OC)c(OC)c2)ccc1Oc1nc(NCCO)nc(N2CCOCC2)n1 [20d]	=	1.64
COc1cc(/C=C/C(=O)c2ccccc2)ccc1Oc1nc(Nc2ccc(F)cc2)nc(N(C)C)n1 [21a]	=	8.29
CN(C)c1nc(NCCNS(=O)(=O)c2ccc(C3=Nc4c(N)nc(N)nc4NC(c4ccc(C(F)(F)F)cc4)C3)cc2)nc(Nc2ccc(F)cc2)n1 (stereo not shown) [31g]	>	86
CN(C)c1nc(NCCNS(=O)(=O)c2ccc(C(=O)/C=C/c3ccc(C(F)(F)F)cc3)cc2)nc(N2CCOCC2)n1 [23g]	=	8.6

* * *

Measured CC50 by item
Tested on: HOP-92
Experiment: cells
Conditions: Homo sapiens, HOP-92, 48 h, read-out: LC50

Molecule	Operator	CC50, µM
COc1cc(C2CC(c3ccc(Cl)cc3)=Nc3c(N)nc(N)nc3N2)ccc1Oc1nc(Nc2ccc(F)cc2)nc(N(C)C)n1 (centres unmarked) [29e]	>	100
CN(C)c1nc(NCCNS(=O)(=O)c2ccc(C3=Nc4c(N)nc(N)nc4NC(c4ccc(C(F)(F)F)cc4)C3)cc2)nc(N2CCOCC2)n1 (centres unmarked) [30g]	>	100
CN(C)c1nc(NCCNS(=O)(=O)c2ccc(C(=O)/C=C/c3ccccc3)cc2)nc(N2CCOCC2)n1 [23a]	=	58
CN(C)c1nc(NCCNS(=O)(=O)c2ccc(C(=O)/C=C/c3ccc(F)cc3)cc2)nc(N2CCOCC2)n1 [23f]	=	63.5
CN(C)c1nc(NCCNS(=O)(=O)c2ccc(C(=O)/C=C/c3ccc(C(F)(F)F)cc3)cc2)nc(N2CCOCC2)n1 [23g]	=	65.2
Nc1nc(N)c2c(n1)NC(c1ccc(F)cc1)CC(c1ccc(Nc3nc(NCCO)nc(Nc4ccc(Cl)cc4)n3)cc1)=N2 (centres unmarked) [33f]	=	10.2
COc1ccc(/C=C/C(=O)c2ccc(S(=O)(=O)NCCNc3nc(Nc4ccc(F)cc4)nc(N(C)C)n3)cc2)cc1 [24c]	>	100
COc1cc(/C=C/C(=O)c2cc(OC)c(OC)c(OC)c2)ccc1Oc1nc(Nc2ccc(F)cc2)nc(N(C)C)n1 [21d]	=	50.9

* * *

Measured GI50 by item
Test system: TK-10

Compound	Operator	GI50 (µM)
COc1cc(/C=C/C(=O)c2ccc(S(=O)(=O)NCCNc3nc(Nc4ccc(F)cc4)nc(N(C)C)n3)cc2)cc(OC)c1OC [24d]	=	13.1
CN(C)c1nc(NCCNS(=O)(=O)c2ccc(C(=O)/C=C/c3ccccc3)cc2)nc(Nc2ccc(F)cc2)n1 [24a]	=	14.6
CN(C)c1nc(NCCNS(=O)(=O)c2ccc(C(=O)/C=C/c3ccccc3)cc2)nc(N2CCOCC2)n1 [23a]	=	16.4
Nc1nc(N)c2c(n1)NC(c1ccc(Cl)cc1)CC(c1ccc(Nc3nc(NCCO)nc(Nc4ccc(Cl)cc4)n3)cc1)=N2 (stereo not shown) [33e]	=	10.6
CN(C)c1nc(NCCNS(=O)(=O)c2ccc(C3=Nc4c(N)nc(N)nc4NC(c4ccc(Cl)cc4)C3)cc2)nc(Nc2ccc(F)cc2)n1 (stereo not shown) [31e]	>	100
COc1ccc(/C=C/C(=O)c2ccc(S(=O)(=O)NCCNc3nc(Nc4ccc(F)cc4)nc(N(C)C)n3)cc2)cc1 [24c]	=	8.09
CN(C)c1nc(NCCNS(=O)(=O)c2ccc(C3=Nc4c(N)nc(N)nc4NC(c4ccc(C(F)(F)F)cc4)C3)cc2)nc(Nc2ccc(F)cc2)n1 (stereo not shown) [31g]	>	86
